Target: human RORγ (Homo sapiens, UniProt P51449)
Construct: human RORγ, from Ser253 to Lys518; expressed in transfected cells; host or cells: CHO cells (Chinese hamster ovary), transient co-transfection with pG5-Luc
Sequence (P51449 253-518): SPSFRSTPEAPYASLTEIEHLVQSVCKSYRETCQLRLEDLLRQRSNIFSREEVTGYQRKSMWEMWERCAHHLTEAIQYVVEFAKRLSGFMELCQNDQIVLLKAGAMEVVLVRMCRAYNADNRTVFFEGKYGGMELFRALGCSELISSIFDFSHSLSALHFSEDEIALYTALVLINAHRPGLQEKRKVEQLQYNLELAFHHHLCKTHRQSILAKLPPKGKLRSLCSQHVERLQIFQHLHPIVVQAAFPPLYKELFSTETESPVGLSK
Assay: In vitro assay of inhibitory effect against RORγ transcriptional activity (GAL4-hRORγ LBD luciferase reporter gene assay in CHO cells)
Assay type: cell-based
Conditions: GAL4-hRORγ LBD luciferase reporter, CHO cells; read-out: LUC EC50 hRORγ
Description: In Vitro Assay of Inhibitory Effect Against RORγ Transcriptional Activity Inhibitory effect of a test article on transcriptional activity of RORγ was measured by means of the following reporter gene assay. […] RORγ transcriptional activity was detected as the intracellular luciferase activity using SteadyLite HTS Reporter Gene Assay System (Perkin Elmer). […] After the incubation at room temperature for 10 minutes, luminescence of each well was measured by a microplate reader. […]
pEC50: −log10 of the molar value.
attribute measured: pEC50

[a] CC(C)C1=CN(C2(CC(=O)O)CC2)C(=O)N[C@@]1(C)c1ccc(CCC(C)(C)C)c(Cl)c1
[b] CC(C)(C)COc1ccc([C@]2(C)NC(=O)N(c3ccc(C(=O)O)cc3)C=C2C2CC(F)(F)C2)cc1Cl
Request: Smaller pEC50 value? Options are a and b Selection: enter the item's label.
Result: b

[1] C[C@@]1(c2ccc(OCCC3CC3)c(Cl)c2)NC(=O)N(C23CC(C(=O)O)(C2)C3)C=C1C1CC(F)(F)C1
[2] CC(C)(C)CCc1ccc([C@]2(C)NC(=O)N(C34CC(C(=O)O)(C3)C4)C=C2C2CC(F)(F)C2)cc1Cl
Request: Smaller pEC50 value? Options are 1 and 2 Selection: enter the item's label.
Result: 1

[P] CC(C)(C)CCc1ccc([C@]2(C)NC(=O)N(c3ccncc3)C=C2CCC(=O)O)cc1Cl
[Q] COCCC1=CN(c2ccc(C(=O)O)cc2)C(=O)N[C@@]1(C)c1ccc(CCC(C)(C)C)c(Cl)c1
Request: Smaller pEC50 value? Options are P and Q Selection: enter the item's label.
Result: P

[1] CC(C)CSc1ccc([C@]2(C)NC(=O)N(CCC(=O)O)C=C2C(C)C)cc1Cl
[2] COCCN1C=C(c2ccc(C(=O)O)cc2)[C@](C)(c2ccc(CCC(C)(C)C)c(Cl)c2)NC1=O
Request: Hi there! Just curious which has the higher pEC50 between 1 and 2 . Selection: enter the item's label.
Result: 2

* * *

Target: human RORγ (Homo sapiens, UniProt P51449)
Construct: human RORγ, from Ser253 to Lys518; expressed in transfected cells; host or cells: CHO cells (Chinese hamster ovary), transient co-transfection with pG5-Luc
Test: In vitro assay of inhibitory effect against RORγ transcriptional activity (GAL4-hRORγ LBD luciferase reporter gene assay in CHO cells)
Format: cell-based
Conditions: GAL4-hRORγ LBD luciferase reporter, CHO cells; read-out: LUC EC50 hRORγ
pEC50: −log10 of the molar value.
attribute measured: pEC50

Previously resolved entries follow.
- compound: "CC(C)C1=CN(Cc2ccc(C(=O)O)cc2)C(=O)N[C@@]1(C)c1ccc(CCC(C)(C)C)c(Cl)c1"
  recorded number: 7.85
- compound: "CC(C)C1=CN(c2ccc(C(=O)O)c(C(F)(F)F)c2)C(=O)N[C@@]1(C)c1ccc(CCC(C)(C)C)c(Cl)c1"
  recorded number: 7.74
- compound: "CC(C)C1=CN(C2CC3(CC(C(=O)O)C3)C2)C(=O)N[C@@]1(C)c1ccc(CCC(C)(C)C)c(Cl)c1 (single isomer, unassigned) [Example 232]"
  recorded number: 7.82

[a] Cc1cc(C(=O)O)ccc1N1C=C(C(C)C)[C@](C)(c2ccc(CCC(C)(C)C)c(Cl)c2)NC1=O
[b] CC(C)(C)CCc1ccc([C@]2(C)NC(=O)N(C3CCC(F)(F)CC3)C=C2[C@H]2C[C@@H](C(=O)O)C2)cc1Cl
Request: Smaller pEC50 value? Options are a and b Selection: enter the item's label.
Result: a
(a: 7.66, b: 8.00)

* * *

Molecular target: human RORγ (Homo sapiens)
Construct: human RORγ, from Ser253 to Lys518; expressed in transfected cells; host or cells: CHO cells (Chinese hamster ovary), transient co-transfection with pG5-Luc
Assay: In vitro assay of inhibitory effect against RORγ transcriptional activity (GAL4-hRORγ LBD luciferase reporter gene assay in CHO cells)
Assay type: cell-based
Conditions: GAL4-hRORγ LBD luciferase reporter, CHO cells; read-out: LUC EC50 hRORγ
pEC50: −log10 of the molar value.
attribute measured: pEC50

- compound: "CC(C)(C)CCc1ccc([C@]2(C)NC(=O)N(CCC(=O)O)C=C2C2CC(F)(F)C2)cc1C(F)(F)F"
  pEC50: 7.42
- compound: "CC(C)C1=CN(C2CCCC(C(=O)O)C2)C(=O)N[C@@]1(C)c1ccc(CCC(C)(C)C)c(Cl)c1 (single isomer, unassigned) [Example 257]"
  pEC50: 6.78

[1] CC(C)C1=CN(CCC(=O)O)C(=O)N[C@@]1(C)c1ccc(CC2CCC2)c(Cl)c1
[2] COCCC1=CN(C23CCC(C(=O)O)(C2)C3)C(=O)N[C@@]1(C)c1ccc([C@H]2C[C@@H](C(C)C)C2)c(Cl)c1
[3] COCCC1=CN(C23CC(C(=O)O)(C2)C3)C(=O)N[C@@]1(C)c1ccc(CCC(C)(C)C)c(C(F)(F)F)c1
Request: Ranking field: pEC50; order: falling. Reply with the labels, ordered as the question asks.
Result: 2, 3, 1

[a] CC(C)C1=CN(C2CNCC2C(=O)O)C(=O)N[C@@]1(C)c1ccc(CCC(C)(C)C)c(Cl)c1 (single isomer, unassigned)
[b] CC(C)C1=CN(CCC(=O)O)C(=O)N[C@@]1(C)c1ccc(C=C2CCOCC2)c(Cl)c1
[c] CC(C)C1=CN(C2CCC(C(=O)O)C2)C(=O)N[C@@]1(C)c1ccc(CCC(C)(C)C)c(Cl)c1 (single isomer, unassigned) [Example 279]
[d] CC(C)C1=CN(C2CCCC(C(=O)O)C2)C(=O)N[C@@]1(C)c1ccc(CCC(C)(C)C)c(Cl)c1 (single isomer, unassigned) [Example 255]
Request: Hi! Can you put these in order of pEC50, lowest number first? Reply with the labels, ordered as the question asks.
Result: b, a, d, c
(b: 5.95, a: 6.15, d: 6.56, c: 7.80)

* * *

Target: human RORγ (Homo sapiens)
Construct: human RORγ, from Ser253 to Lys518; expressed in transfected cells; host or cells: CHO cells (Chinese hamster ovary), transient co-transfection with pG5-Luc
Assay: In vitro assay of inhibitory effect against RORγ transcriptional activity (GAL4-hRORγ LBD luciferase reporter gene assay in CHO cells)
Type: cell-based
Conditions: GAL4-hRORγ LBD luciferase reporter, CHO cells; read-out: LUC EC50 hRORγ
pEC50: −log10 of the molar value.
attribute measured: pEC50

Previously resolved entries follow.
- compound: "COCC(C)C1=CN(c2ccc(C(=O)O)cc2)C(=O)N[C@@]1(C)c1ccc(CCC(C)(C)C)c(Cl)c1 (single isomer, unassigned) [Example 307]"
  attribute measured: "pEC50"
  recorded number: 8.30
- compound: "COCCC1=CN(c2ccc(C(=O)O)cc2)C(=O)N[C@@]1(C)c1ccc([C@H]2C[C@@H](C(C)C)C2)c(Cl)c1"
  attribute measured: "pEC50"
  recorded number: 7.77
- compound: "CC(C)C1=CN(c2ccc(C(=O)O)cc2)C(=O)N[C@@]1(C)c1ccc(COC(C)(C)C)c(Cl)c1"
  attribute measured: "pEC50"
  recorded number: 7.52
- compound: "COCCC1=CN(c2ccc(C(=O)O)cc2)C(=O)N[C@@]1(C)c1ccc([C@H]2C[C@@H](C(C)(C)C)C2)c(Cl)c1"
  attribute measured: "pEC50"
  recorded number: 7.89
- compound: "C[C@@]1(c2ccc(CC3CCCCC3)c(Cl)c2)NC(=O)N(CCC(=O)O)C=C1C1CC1"
  attribute measured: "pEC50"
  recorded number: 6.96

[A] CC(=O)N1CC(C(=O)O)C(N2C=C(C(C)C)[C@](C)(c3ccc(CCC(C)(C)C)c(Cl)c3)NC2=O)C1 (single isomer, unassigned)
[B] CC(C)(C)COc1ccc([C@]2(C)NC(=O)N(C34CC(C(=O)O)(C3)C4)C=C2C2CC(F)(F)C2)cc1Cl
Request: Hi there! Just curious which has the higher pEC50 between A and B . Selection: enter the item's label.
Result: B
(B: 6.95, A: 5.34)
